Test system: MCF-7, HepG-2, and HCT-116
Assay: MTT antiproliferative assay, panel of three tumor cell lines (range over lines)
Assay type: cell-based
Conditions: Homo sapiens, range over the three cancer cell lines, read-out: cytotoxic IC50, range over MCF-7, HepG-2 and HCT-116
quantity-kind: IC50

(Q) Recall and state the measured IC50 for O=C(N/N=C/c1ccc([N+](=O)[O-])cc1)c1ccc(NC(=O)c2cccnc2)cc1 [Compound 11c] .
(A) 3.47 to 7.31 µM

(Q) Query IC50 for Cc1cccc(NC(=O)c2ccc(NC(=O)c3cccnc3)cc2)c1 [Compound 7h]
(A) 14.1 to 31.4 µM

(Q) Kindly indicate its recorded IC50. Item: Cc1ccccc1NC(=O)c1ccc(NC(=O)c2cccnc2)cc1 [Compound 7f]
(A) 14.1 to 31.4 µM

(Q) Specify IC50 for O=C(N/N=C/c1ccccc1Cl)c1ccc(NC(=O)c2cccnc2)cc1 [Compound 11f] and stop.
(A) 3.47 to 7.31 µM

(Q) Assign IC50 to the following record: Cc1ccc(NC(=O)c2ccc(NC(=O)c3cccnc3)cc2)cc1 [Compound 7j]
(A) 14.1 to 31.4 µM

(Q) Give IC50 for Cc1ccc(NC(=O)c2ccc(NC(=O)c3cccnc3)cc2)c(C)c1 [Compound 7k]
(A) 14.1 to 31.4 µM

(Q) Answer with reported IC50 of CN(C)c1ccc(/C=N/NC(=O)c2ccc(NC(=O)c3cccnc3)cc2)cc1 [Compound 11g]
(A) 3.47 to 7.31 µM

Data provenance is paper PMC8568530.
